Data origin: ChEMBL document CHEMBL1201862

Consider the following compounds; for each one, report its GI50.
- Test system: M19-MEL
- test-name: NCI tumour cell line growth inhibition, 48 h
The source made the active and inactive calls. No stated cut-off is given here; in the data, active = GI50 up to about 1.1 µM and inactive = higher.

Query block: Value lookup for GI50; key = COc1ccc(C(=O)C(C(=O)C(=O)Nc2nc3ccc(OC)cc3s2)c2ccc(OC)cc2)cc1 (stereo unspecified)
Result block: > 100 µM (inactive)

Query block: Value lookup for GI50; key = C[C@]12CCC(=O)C(OC(=O)c3ccc([N+](=O)[O-])cc3)=C1CCC2=O
Result block: > 100 µM (inactive)

Query block: Value lookup for GI50; key = CCCC(O)C(NC(=O)CCl)C(=O)O (stereo unspecified)
Result block: > 100 µM (inactive)

Query block: Value lookup for GI50; key = COc1ccc(N2C(=O)[C@@H](N=[N+]=[N-])[C@@H]2[C@H]2COC(C)(C)O2)cc1
Result block: > 100 µM (inactive)

Query block: Value lookup for GI50; key = Cc1cccc(=O)c([O-])c1.Cc1cccc(=O)c([O-])c1.[Bi+3].[Cl-]
Result block: 11 µM (inactive)

Query block: Value lookup for GI50; key = CN(C)CCCNc1ccc2ncn3c4ccc(O)cc4c(=O)c1c23
Result block: 1.53 µM (inactive)

Query block: Value lookup for GI50; key = OCC(O)COc1ccc(F)cc1 (stereo unspecified)
Result block: > 100 µM (inactive)

Query block: Value lookup for GI50; key = COc1cccc(NC(=O)CC(=O)N2N=C(N(CCC#N)c3ccccc3C)CC2c2ccccc2)c1 (stereo unspecified)
Result block: > 100 µM (inactive)

Query block: Value lookup for GI50; key = CC(C)(C)c1ccnc(/N=C2\N/C(=N\c3cc(C(C)(C)C)ccn3)c3ccccc32)c1
Result block: 33.1 µM (inactive)

Query block: Value lookup for GI50; key = N#CC(C#N)=c1ccc(=C2N3CCCC3CN2C23CC4CC(CC(C4)C2)C3)cc1 (stereo unspecified)
Result block: > 100 µM (inactive)

Query block: Value lookup for GI50; key = O=C(O)CN1CCSc2ccccc2CN(CC(=O)O)CCSc2ccccc2C1
Result block: > 100 µM (inactive)

Query block: Value lookup for GI50; key = CC(=O)OCC1=C(C(=O)O)C(c2ccc3c(c2)OCO3)c2cc3c(cc2O1)OCO3 (stereo unspecified)
Result block: > 100 µM (inactive)

Query block: Value lookup for GI50; key = [C-]#[N+][C@@H]1C2[C@H](CC[C@@]1(C)O)C(=C)CC[C@@H]2[C@@]1(C)CC[C@H](Cl)C(C)(C)O1 (stereo partly specified)
Result block: 4.12 µM (inactive)

Query block: Value lookup for GI50; key = COC(=O)C1CC2CC(=NNC(N)=O)CC2C1 (stereo unspecified)
Result block: > 100 µM (inactive)

Query block: Value lookup for GI50; key = Cn1nc(-c2ccccc2)c(C(=O)/C=C/c2ccc(Cl)cc2)c(N2CCOCC2)c1=O
Result block: 5.24 µM (inactive)

Query block: Value lookup for GI50; key = O=C(CSc1ncnc2[nH]cnc12)c1ccccc1
Result block: > 100 µM (inactive)

Query block: Value lookup for GI50; key = CC1(C)CC(/C=C2/OC(=O)c3ccccc32)=C(C(N)=O)C(=O)O1
Result block: > 100 µM (inactive)

Query block: Value lookup for GI50; key = CCC12C=C(C(=O)OC)N3c4ccccc4C4CCN(CCC1)C2C43 (stereo unspecified)
Result block: 75.9 µM (inactive)

Query block: Value lookup for GI50; key = CC(=O)N(C)C=C1C(=O)N(C)C(=O)N(C)C1=O
Result block: > 100 µM (inactive)

Query block: Value lookup for GI50; key = CC1CC(=O)Nc2ccccc2N1C(=O)CN1CCC(CCCCN(C)C)CC1 (stereo unspecified)
Result block: > 100 µM (inactive)

Query block: Value lookup for GI50; key = Nc1ncnc2c1ncn2C1OC(CSCC(F)(F)F)C(O)C1O (stereo unspecified)
Result block: > 100 µM (inactive)

Query block: Value lookup for GI50; key = CC(=O)O[C@H]1CC[C@@]2(C)C(=CC[C@H]3C4=CC=C(C(C)=O)[C@@]4(C)CCC32)C1 (stereo partly specified)
Result block: 36.3 µM (inactive)

Query block: Value lookup for GI50; key = CC1(C)C2CCC13CS(=O)(=O)N1O[C@]13C(=O)O2 (stereo partly specified)
Result block: > 100 µM (inactive)

Query block: Value lookup for GI50; key = CCOC(=O)N1C(c2ccccc2)C=CC(c2ccccc2)N1C(=O)OCC (stereo unspecified)
Result block: > 100 µM (inactive)

Query block: Value lookup for GI50; key = NC(=O)c1ncn2c1NCC1OC2C(O)C1O (stereo unspecified)
Result block: > 100 µM (inactive)

Query block: Value lookup for GI50; key = Cc1c(C(=O)C/C(=N/NC(=O)CC#N)C(N)=O)[n+]([O-])c2ccccc2[n+]1[O-]
Result block: 21.8 µM (inactive)

---

- Tested on: UACC-257
- test-name: NCI tumour cell line growth inhibition, 48 h
Active and inactive are the calls of the source. Cut-off read from the data, not from the text of the source: active = GI50 up to about 1.1 µM and inactive = higher.
// classify into active, inactive

Query block: Tell me the recorded outcome of this test for COc1cc([C@@H]2c3cc4c(cc3[C@@H](c3c(O)cc(O)c5c3O[C@H](c3ccc(O)c(O)c3)[C@H](OC(=O)c3cc(O)c(O)c(O)c3)C5)[C@H]3COC(=O)[C@H]23)OCO4)cc(OC)c1OC .
Result block: inactive

Query block: Tell me the recorded outcome of this test for CCO[C@@H]1CCC([S+]([O-])c2ccc(C)cc2)=CO1 (stereo not given in full) .
Result block: inactive

Query block: Tell me the recorded outcome of this test for CC1=NN(c2nc(N)nc(C(C#N)C(=O)c3cc4c(cc3Cl)Sc3nccn3S4(=O)=O)n2)C(C)(C)C1 (stereo not given) .
Result block: inactive

Query block: Tell me the recorded outcome of this test for CC(=O)N(C)C=C1C(=O)N(C)C(=O)N(C)C1=O .
Result block: inactive

Query block: Tell me the recorded outcome of this test for C[n+]1c(-c2ccccc2)cc2/c(=C\c3ccccc3)c3ccccc3n21 .
Result block: active

Query block: Tell me the recorded outcome of this test for C=C1CC[C@H]2C(=O)OC(c3ccoc3)C[C@]2(C)C/C=C\C=C/1C(=O)OC (stereo not given in full) .
Result block: inactive

Query block: Tell me the recorded outcome of this test for N#C/N=C(/N)c1sc2nc3c(c(-c4ccc(Br)cc4)c2c1N)CCCC3 .
Result block: inactive

Query block: Tell me the recorded outcome of this test for OCc1cc2c(ccc3sc4ccc5sc6ccc7ncccc7c6c5c4c32)s1 .
Result block: inactive

Query block: Tell me the recorded outcome of this test for O=C(c1cccs1)N(C(=S)N1CCN(c2ccccc2)CC1)C1CCCCC1 .
Result block: inactive

Query block: Tell me the recorded outcome of this test for COc1cc2oc(=O)cc(C)c2cc1[N+](=O)[O-] .
Result block: inactive

Query block: Tell me the recorded outcome of this test for O=C1OC(c2ccccc2)=N/C1=C\c1ccc([N+](=O)[O-])cc1 .
Result block: inactive

Query block: Tell me the recorded outcome of this test for CC1(C)C2CCC13CS(=O)(=O)N1O[C@]13C(=O)O2 (stereo not given in full) .
Result block: inactive

Query block: Tell me the recorded outcome of this test for COc1ccc2oc(-c3ccncc3)cc(=O)c2c1 .
Result block: inactive

Query block: Tell me the recorded outcome of this test for Nc1ncnc2c1ncn2C1OC(COC2C(CO)OC(OC(C(=O)O)C(O)C(OP(=O)(O)O)C(O)C(=O)O)C(O)C2O)C(O)C1O (stereo not given) .
Result block: inactive

Query block: Tell me the recorded outcome of this test for CC(=O)OC1(C)C(=O)OC/C2=C/CN(C)CCC(OC(=O)C(O)(C(C)Cl)CC1C)C2=O.c1ccccc1 (stereo not given) .
Result block: inactive

Query block: Tell me the recorded outcome of this test for Cc1cc(C)c2c(O)cc(-c3ccc(F)cc3)nc2n1 .
Result block: inactive

Query block: Tell me the recorded outcome of this test for CC1=CC(=O)c2c(O)cccc2C1=O .
Result block: inactive

Query block: Tell me the recorded outcome of this test for CCOP(=O)(C/C=C/Cn1ncc(=O)[nH]c1=O)OCC .
Result block: inactive

Query block: Tell me the recorded outcome of this test for CC(=O)Oc1c(C)cc(-c2cc(C)c(OC(C)=O)c(C)c2)cc1C .
Result block: inactive

Query block: Tell me the recorded outcome of this test for CC(=O)Nc1cccc(/N=N/N(C)C)c1 .
Result block: inactive

---

- Test system: NCI/ADR-RES
- test-name: NCI tumour cell line growth inhibition, 48 h
Calls of active or inactive are those of the source. Rule as the data show it: active = GI50 up to about 1.1 µM and inactive = higher.
Consider the following compounds; for each one, report its GI50.

Query block: Value lookup for GI50; key = O=C(O)[C@@H]1CCCN1
Result block: > 100 µM (inactive)

Query block: Value lookup for GI50; key = CC(C)(C)C1CCC2c3c([nH]c4ccccc34)C3C(=O)N(c4cc(Br)cc(Br)c4)C(=O)C3C2C1 (stereo unspecified)
Result block: 14.6 µM (inactive)

Query block: Value lookup for GI50; key = N#C/N=C(/N)c1sc2nc3c(c(-c4ccc(Br)cc4)c2c1N)CCCC3
Result block: 21.4 µM (inactive)

Query block: Value lookup for GI50; key = Cc1cccc2c1Oc1ccccc1C2NC(=O)c1ccc([N+](=O)[O-])cc1 (stereo unspecified)
Result block: 79.4 µM (inactive)

Query block: Value lookup for GI50; key = O=C1N/C(=N/N=C\c2ccccc2)N/C1=C/c1ccc(Cl)cc1
Result block: 23.2 µM (inactive)

Query block: Value lookup for GI50; key = Nc1c(Cl)ncnc1N[C@@H]1C[C@H]1CO
Result block: > 100 µM (inactive)
